The measurements presented in this section are drawn from patent US9315496B2.

assay: in vivo; conditions: both, KM, mouse, po
assay metric: LD50

Q: Record request: LD50 value, item Cc1cc(=O)oc2c(Cl)c(OCCCCN3CCC(c4noc5cc(F)ccc45)CC3)ccc12
A: > 2000 mg/kg
